Assay Name: Half life in rat liver microsomes at 100 uM by HPLC
Type: ADME, Microsome
# maps each entry to its half-life at 100 µM
Returns: string containing the numeric result and its unit.

Some compounds with recorded half-life at 100 µM:
> print(dat)
                                   compound     observation.type   reading
1  CC(C)CS(=O)(=O)Oc1ccc(Oc2ccc(S(=O)(=O)CC3CS3)cc2)cc1 (stereo not given)  half-life at 100 µM  16.2 min
2  O=S(=O)(CC1CS1)c1ccc(Oc2ccccc2)cc1 (stereo not given)  half-life at 100 µM    12 min
3  CCS(=O)(=O)Oc1ccc(Oc2ccc(S(=O)(=O)CC3CS3)cc2)cc1 (stereo not given)  half-life at 100 µM  35.9 min
4  CCCS(=O)(=O)Oc1ccc(Oc2ccc(S(=O)(=O)CC3CS3)cc2)cc1 (stereo not given)  half-life at 100 µM  12.6 min

Next compound, please.
Inquiry: So what does the record say about half-life at 100 µM for CS(=O)(=O)Oc1ccc(Oc2ccc(S(=O)(=O)CC3CS3)cc2)cc1 (stereo not given) ?
Reply text: 24.8 min

* * *

System: Matrix metalloproteinase-9 (Homo sapiens, UniProt P14780) | Read-out: log10 Ki
Sequence (P14780 whole entry): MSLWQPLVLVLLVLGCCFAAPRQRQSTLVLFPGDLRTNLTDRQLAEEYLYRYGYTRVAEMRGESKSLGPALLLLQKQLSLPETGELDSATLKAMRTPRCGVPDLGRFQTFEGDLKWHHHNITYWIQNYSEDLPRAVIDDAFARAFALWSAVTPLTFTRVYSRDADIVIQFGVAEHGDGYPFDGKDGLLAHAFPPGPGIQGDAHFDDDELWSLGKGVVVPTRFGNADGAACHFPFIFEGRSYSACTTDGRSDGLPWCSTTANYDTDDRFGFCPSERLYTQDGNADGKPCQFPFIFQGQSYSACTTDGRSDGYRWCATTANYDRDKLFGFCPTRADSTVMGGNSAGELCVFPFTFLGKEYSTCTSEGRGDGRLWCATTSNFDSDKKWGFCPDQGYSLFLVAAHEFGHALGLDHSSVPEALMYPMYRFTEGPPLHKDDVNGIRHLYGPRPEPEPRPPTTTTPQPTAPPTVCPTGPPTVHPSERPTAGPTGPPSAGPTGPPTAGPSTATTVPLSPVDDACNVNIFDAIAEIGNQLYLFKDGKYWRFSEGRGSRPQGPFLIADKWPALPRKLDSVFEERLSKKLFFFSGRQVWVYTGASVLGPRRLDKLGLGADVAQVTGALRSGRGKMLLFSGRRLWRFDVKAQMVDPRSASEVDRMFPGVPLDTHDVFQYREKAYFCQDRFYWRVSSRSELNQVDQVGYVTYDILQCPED
Would you kindly interpret these values as log10 of Ki expressed in µM?

> print(dat)
                                   compound  reading
1  CCS(=O)(=O)Oc1ccc(Oc2ccc(S(=O)(=O)CC3CS3)cc2)cc1 (configuration not stated)    -0.48
2  CCS(=O)(=O)Oc1ccc(S(=O)(=O)CC2CS2)cc1 (configuration not stated)     1.08

Inquiry: So what does the record say about log10 Ki for CCCS(=O)(=O)Oc1ccc(Oc2ccc(S(=O)(=O)CC3CS3)cc2)cc1 (configuration not stated) ?
Reply text: -0.28

Inquiry: Param item: CS(=O)(=O)Oc1ccc(S(=O)(=O)CC2CS2)cc1 (configuration not stated)
Reply text: 0.59

Inquiry: Param item: CCCS(=O)(=O)Oc1ccc(S(=O)(=O)CC2CS2)cc1 (configuration not stated)
Reply text: 0.79

Inquiry: Param item: CC(C)CS(=O)(=O)Oc1ccc(Oc2ccc(S(=O)(=O)CC3CS3)cc2)cc1 (configuration not stated)
Reply text: -0.42

Inquiry: Param item: CC(C)CS(=O)(=O)Oc1ccc(S(=O)(=O)CC2CS2)cc1 (configuration not stated)
Reply text: 0.54

* * *

Measured Target: Interstitial collagenase (Homo sapiens)
Sequence (P03956 whole entry): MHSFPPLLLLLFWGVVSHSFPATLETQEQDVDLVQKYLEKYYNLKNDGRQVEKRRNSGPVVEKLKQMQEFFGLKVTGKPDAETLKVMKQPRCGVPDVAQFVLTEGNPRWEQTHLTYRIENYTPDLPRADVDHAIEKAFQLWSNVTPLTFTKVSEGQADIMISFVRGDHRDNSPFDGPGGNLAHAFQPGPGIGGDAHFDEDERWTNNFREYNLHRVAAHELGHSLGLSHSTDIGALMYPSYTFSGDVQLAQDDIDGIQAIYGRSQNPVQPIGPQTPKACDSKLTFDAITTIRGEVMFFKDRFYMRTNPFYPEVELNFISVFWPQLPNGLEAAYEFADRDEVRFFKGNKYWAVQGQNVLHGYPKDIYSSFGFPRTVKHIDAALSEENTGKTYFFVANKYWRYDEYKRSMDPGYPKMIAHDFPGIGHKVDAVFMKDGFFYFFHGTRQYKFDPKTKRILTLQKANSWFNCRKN
Observation Type: Ki (µM)
Dear colleague, please return just the value in µM, with no unit written.

Inquiry: So what does the record say about Ki for CS(=O)(=O)Oc1ccc(S(=O)(=O)CC2CS2)cc1 (stereo unspecified) ?
Reply text: 41

* * *

Assay Name: Intrinsic clearance in rat liver microsomes at 200 uM by HPLC
Type: ADME, Microsome
Observation Type: CLint scaled at 200 µM (mL/min/kg)
Dear colleague, please return just the value in mL/min/kg, with no unit written.

Some compounds with recorded CLint scaled at 200 µM:
> print(dat)
                                   compound  reading
1  CCCS(=O)(=O)Oc1ccc(S(=O)(=O)CC2CS2)cc1 (centres undefined)     47.2
2  CC(C)CS(=O)(=O)Oc1ccc(S(=O)(=O)CC2CS2)cc1 (centres undefined)     38.8
3  CS(=O)(=O)Oc1ccc(S(=O)(=O)CC2CS2)cc1 (centres undefined)       31

Next compound, please.
Inquiry: So what does the record say about CLint scaled at 200 µM for CCS(=O)(=O)Oc1ccc(S(=O)(=O)CC2CS2)cc1 (centres undefined) ?
Reply text: 44.2
